Test system: TR146 cells
Method summary: In vitro permeation, buccal model
Assay type: in vitro ADME, human
Test settings: from CS-loaded OFs, 90 min
Marks after values point to notes of the source that are not given here.

>  <Molecule>
COc1cc(-c2oc3cc(O)cc(O)c3c(=O)c2O)ccc1O [Isorhamnetin]

>  <Experimental system>
TR146 cells

>  <Permeation (%)>
98.29 ± 2.14^a %

$$$$
>  <Molecule>
O=C(O)CCC(=O)O [Succinic acid]

>  <Experimental system>
TR146 cells

>  <Permeation (%)>
79.12 ± 4.41^c %

$$$$
>  <Molecule>
O=C1CC[C@@H](C(=O)O)N1 [Pyroglutamic acid]

>  <Experimental system>
TR146 cells

>  <Permeation (%)>
65.40 ± 0.82^b %

$$$$
>  <Molecule>
O=C(O)C[C@H](C(=O)O)[C@@H](O)C(=O)O [Isocitric acid]

>  <Experimental system>
TR146 cells

>  <Permeation (%)>
1.04 ± 0.01^b %

$$$$
>  <Molecule>
COc1cc(CC(=O)O)ccc1O [Homovanillic acid]

>  <Experimental system>
TR146 cells

>  <Permeation (%)>
105.25 ± 2.83^a %

$$$$
>  <Molecule>
O=C(O)c1ccc(O)c(O)c1 [Protocatechuic acid]

>  <Experimental system>
TR146 cells

>  <Permeation (%)>
96.88 ± 1.43^b %

$$$$

###

Test system: TR146 cells
Method summary: In vitro permeation, buccal model
Type: in vitro ADME, human
Test settings: from CS extract, 240 min
Marks after values point to notes of the source that are not given here.
Permeation (%) listing for selected compounds.

>  <Compound>
Oc1cc(O)c2c(c1)O[C@H](c1ccc(O)c(O)c1)[C@H](O)C2 [Epicatechin]

>  <Permeation (%)>
96.86 ± 1.86^a %

$$$$
>  <Compound>
O=C(O)C[C@H](C(=O)O)[C@@H](O)C(=O)O [Isocitric acid]

>  <Permeation (%)>
0.70 ± 0.01^b %

$$$$
>  <Compound>
O=C(O)c1ccc(O)c(O)c1 [Protocatechuic acid]

>  <Permeation (%)>
32.88 ± 0.87^b %

$$$$
>  <Compound>
COc1cc(-c2oc3cc(O)cc(O)c3c(=O)c2O)ccc1O [Isorhamnetin]

>  <Permeation (%)>
98.36 ± 1.91^a %

$$$$
>  <Compound>
O[C@H]1[C@H](O)[C@@H](O)[C@H](O)[C@@H](O)[C@H]1O [Myo-Inositol]

>  <Permeation (%)>
56.50 ± 0.37^c %

$$$$
>  <Compound>
O=C(O)CCC(=O)O [Succinic acid]

>  <Permeation (%)>
23.76 ± 1.68^b %

$$$$
>  <Compound>
COc1cc(CC(=O)O)ccc1O [Homovanillic acid]

>  <Permeation (%)>
87.20 ± 2.06^a %

$$$$
>  <Compound>
O=C1CC[C@@H](C(=O)O)N1 [Pyroglutamic acid]

>  <Permeation (%)>
28.47 ± 2.52^b %

$$$$
>  <Compound>
O=C(O)c1cccc(O)c1 [3-Hydroxybenzoic acid]

>  <Permeation (%)>
24.23 ± 0.45^b %

$$$$
>  <Compound>
COc1cc(C=O)ccc1O [Vanillin]

>  <Permeation (%)>
52.90 ± 0.73^d %

$$$$

###

Attribute: Permeation (%)
Test system: TR146 cells
Method summary: In vitro permeation, buccal model
Type: in vitro ADME, human
Test settings: from CS extract, 90 min
Marks after values point to notes of the source that are not given here.
Measured metric: Permeation (%)

>  <Compound>
O=C1CC[C@@H](C(=O)O)N1 [Pyroglutamic acid]

>  <Test result>
22.87 ± 1.52^b %

$$$$
>  <Compound>
O=C(O)C[C@H](C(=O)O)[C@@H](O)C(=O)O [Isocitric acid]

>  <Test result>
0.24 ± 0.03^a %

$$$$
>  <Compound>
O=C(O)CCC(=O)O [Succinic acid]

>  <Test result>
19.54 ± 0.94^b %

$$$$
>  <Compound>
COc1cc(C=O)ccc1O [Vanillin]

>  <Test result>
42.18 ± 1.08^c %

$$$$
>  <Compound>
O=C(O)c1ccc(O)c(O)c1 [Protocatechuic acid]

>  <Test result>
37.52 ± 0.97^b %

$$$$
>  <Compound>
COc1cc(-c2oc3cc(O)cc(O)c3c(=O)c2O)ccc1O [Isorhamnetin]

>  <Test result>
99.00 ± 4.70^a %

$$$$
>  <Compound>
O=C(O)c1cccc(O)c1 [3-Hydroxybenzoic acid]

>  <Test result>
16.17 ± 0.06^a %

$$$$
>  <Compound>
O[C@H]1[C@H](O)[C@@H](O)[C@H](O)[C@@H](O)[C@H]1O [Myo-Inositol]

>  <Test result>
30.46 ± 0.05^a^,^b %

$$$$
>  <Compound>
Oc1cc(O)c2c(c1)O[C@H](c1ccc(O)c(O)c1)[C@H](O)C2 [Epicatechin]

>  <Test result>
97.75 ± 5.73^a %

$$$$
>  <Compound>
COc1cc(CC(=O)O)ccc1O [Homovanillic acid]

>  <Test result>
94.47 ± 3.00^b %

$$$$

###

Tested on: TR146 cells
Method summary: In vitro permeation, buccal model
Type: in vitro ADME, human
Test settings: from CS extract, 30 min
Marks after values point to notes of the source that are not given here.
Catalogue of compounds with associated Permeation (%)

>  <Compound>
COc1cc(C=O)ccc1O

>  <Permeation (%)>
23.12 ± 0.56^b %

$$$$
>  <Compound>
COc1cc(-c2oc3cc(O)cc(O)c3c(=O)c2O)ccc1O

>  <Permeation (%)>
99.73 ± 1.83^a %

$$$$
>  <Compound>
O=C(O)c1cccc(O)c1 [3-Hydroxybenzoic acid]

>  <Permeation (%)>
13.06 ± 0.03^a %

$$$$
>  <Compound>
COc1cc(CC(=O)O)ccc1O

>  <Permeation (%)>
92.34 ± 1.55^b %

$$$$
>  <Compound>
O=C(O)CCC(=O)O

>  <Permeation (%)>
14.86 ± 2.71^a %

$$$$

###

We begin with a simple list: items and their reported Permeation (%).
System: TR146 cells
Method summary: In vitro permeation, buccal model
Assay type: in vitro ADME, human
Test settings: from CS extract, 60 min
Marks after values point to notes of the source that are not given here.

>  <Molecule>
O=c1c(O[C@@H]2O[C@H](CO)[C@H](O)[C@H](O)[C@H]2O)c(-c2ccc(O)c(O)c2)oc2cc(O)cc(O)c12 [Quercetin 3-O-galactoside]

>  <Permeation (%)>
49.94 ± 0.98^a %

$$$$
>  <Molecule>
O=C(O)CCC(=O)O

>  <Permeation (%)>
14.96 ± 0.46^a %

$$$$
>  <Molecule>
O=C1CC[C@@H](C(=O)O)N1

>  <Permeation (%)>
23.34 ± 0.88^b %

$$$$
>  <Molecule>
O=C(O)c1cccc(O)c1 [3-Hydroxybenzoic acid]

>  <Permeation (%)>
17.29 ± 0.01^a %

$$$$
>  <Molecule>
O[C@H]1[C@H](O)[C@@H](O)[C@H](O)[C@@H](O)[C@H]1O

>  <Permeation (%)>
33.80 ± 0.08^a^,^b %

$$$$
>  <Molecule>
COc1cc(-c2oc3cc(O)cc(O)c3c(=O)c2O)ccc1O

>  <Permeation (%)>
99.10 ± 2.96^a %

$$$$
>  <Molecule>
Oc1cc(O)c2c(c1)O[C@H](c1ccc(O)c(O)c1)[C@H](O)C2 [Epicatechin]

>  <Permeation (%)>
98.05 ± 3.81^a %

$$$$
>  <Molecule>
O=C(O)c1ccc(O)c(O)c1

>  <Permeation (%)>
38.29 ± 0.86^b %

$$$$
>  <Molecule>
COc1cc(CC(=O)O)ccc1O

>  <Permeation (%)>
93.10 ± 0.94^b %

$$$$
>  <Molecule>
O=C(O)C[C@H](C(=O)O)[C@@H](O)C(=O)O

>  <Permeation (%)>
0.15 ± 0.01^a %

$$$$
>  <Molecule>
COc1cc(C=O)ccc1O

>  <Permeation (%)>
28.43 ± 0.41^b %

$$$$

###

Measured Permeation (%) values are reported for all entries that follow.
Tested on: TR146 cells
Method summary: In vitro permeation, buccal model
Format: in vitro ADME, human
Test settings: from CS extract, 30 min
Marks after values point to notes of the source that are not given here.

>  <Molecule>
Oc1cc(O)c2c(c1)O[C@H](c1ccc(O)c(O)c1)[C@H](O)C2 [Epicatechin]

>  <Permeation (%)>
96.86 ± 2.25^a %

$$$$
>  <Molecule>
O=C(O)c1ccc(O)c(O)c1 [Protocatechuic acid]

>  <Permeation (%)>
43.86 ± 1.62^b %

$$$$
>  <Molecule>
O=C(O)C[C@H](C(=O)O)[C@@H](O)C(=O)O [Isocitric acid]

>  <Permeation (%)>
0.12 ± 0.03^a %

$$$$
>  <Molecule>
O=C1CC[C@@H](C(=O)O)N1 [Pyroglutamic acid]

>  <Permeation (%)>
15.39 ± 1.05^a %

$$$$
>  <Molecule>
O[C@H]1[C@H](O)[C@@H](O)[C@H](O)[C@@H](O)[C@H]1O [Myo-Inositol]

>  <Permeation (%)>
79.23 ± 1.43c %

$$$$
